Hey, just so you know, these numbers are from patent US20210155689A1.

tested.on: T1, human LAG-3 on cells (HEK293-hLAG-3 stable cell line) (human, UniProt P18627 23-525)
T1 sequence: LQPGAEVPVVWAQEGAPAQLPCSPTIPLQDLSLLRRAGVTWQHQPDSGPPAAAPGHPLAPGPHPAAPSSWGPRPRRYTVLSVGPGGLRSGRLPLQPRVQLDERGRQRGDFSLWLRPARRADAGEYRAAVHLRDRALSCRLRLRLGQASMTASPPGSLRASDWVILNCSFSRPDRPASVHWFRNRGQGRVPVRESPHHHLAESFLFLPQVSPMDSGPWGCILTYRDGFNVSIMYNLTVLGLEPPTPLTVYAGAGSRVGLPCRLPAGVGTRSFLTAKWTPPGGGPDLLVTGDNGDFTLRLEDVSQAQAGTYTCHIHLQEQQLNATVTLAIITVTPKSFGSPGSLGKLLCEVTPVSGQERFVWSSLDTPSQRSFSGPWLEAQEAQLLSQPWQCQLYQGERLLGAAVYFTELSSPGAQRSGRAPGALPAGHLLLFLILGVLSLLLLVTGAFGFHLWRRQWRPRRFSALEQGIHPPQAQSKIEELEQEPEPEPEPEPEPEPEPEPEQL
experiment.summary: FACS, HEK293-hLAG-3, antibody 1.6 nM
// Mean fluorescence intensity lookup, one value per entry
Just the number, please.

405B8H3-6 humanized antibody (antibody, V domains shown) VH: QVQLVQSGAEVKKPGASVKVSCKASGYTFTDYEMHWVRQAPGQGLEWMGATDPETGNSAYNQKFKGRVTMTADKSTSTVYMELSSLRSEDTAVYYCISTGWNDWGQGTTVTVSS VL: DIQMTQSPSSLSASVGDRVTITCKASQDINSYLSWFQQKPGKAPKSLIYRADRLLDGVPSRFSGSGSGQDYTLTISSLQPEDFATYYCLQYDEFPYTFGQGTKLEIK
179
405B8H3 mouse-human chimeric antibody (antibody, V domains shown, also called mAb103-405B8H3) VH: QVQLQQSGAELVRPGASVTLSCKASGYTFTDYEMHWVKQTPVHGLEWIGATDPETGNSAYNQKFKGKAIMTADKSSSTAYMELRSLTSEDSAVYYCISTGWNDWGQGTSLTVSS VL: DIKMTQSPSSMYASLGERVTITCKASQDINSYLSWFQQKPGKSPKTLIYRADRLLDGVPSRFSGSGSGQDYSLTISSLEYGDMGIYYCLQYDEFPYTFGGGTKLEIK
139
405B8H3-7 humanized antibody (antibody, V domains shown) VH: QVQLVQSGAEVKKPGASVKVSCKASGYTFTDYEMHWVRQAPGQGLEWIGATDPETGNSAYNQKFKGRATMTADKSTSTAYMELSSLRSEDTAVYYCISTGWNDWGQGTTVTVSS VL: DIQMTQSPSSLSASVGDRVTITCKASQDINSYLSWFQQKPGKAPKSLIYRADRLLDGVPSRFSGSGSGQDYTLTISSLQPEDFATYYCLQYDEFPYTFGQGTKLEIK
163
405B8H3-3 humanized antibody (antibody, V domains shown) VH: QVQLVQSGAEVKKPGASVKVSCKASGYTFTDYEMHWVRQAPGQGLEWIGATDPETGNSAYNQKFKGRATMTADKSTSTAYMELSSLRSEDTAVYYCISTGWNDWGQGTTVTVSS VL: DIQMTQSPSSLSASVGDRVTITCKASQDINSYLSWFQQKPGKAPKSLIYRADRLLDGVPSRFSGSGSGTDFTLTISSLQPEDFATYYCLQYDEFPYTFGQGTKLEIK
173

Read the next record carefully.
Quick one: Mean fluorescence intensity for 405B8H3-2 humanized antibody (antibody, V domains shown) VH: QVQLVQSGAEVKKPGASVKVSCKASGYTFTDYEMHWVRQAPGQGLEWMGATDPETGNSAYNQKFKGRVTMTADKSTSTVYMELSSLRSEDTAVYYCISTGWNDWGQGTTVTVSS VL: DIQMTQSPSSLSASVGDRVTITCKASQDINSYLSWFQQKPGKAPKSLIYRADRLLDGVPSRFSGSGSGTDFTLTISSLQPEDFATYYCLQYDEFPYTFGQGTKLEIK ? 188
